target: Human Dopamine D3 receptor (Homo sapiens)
Construct: expressed in transfected cells; host or cells: CHO cells
Sequence (P35462 whole entry): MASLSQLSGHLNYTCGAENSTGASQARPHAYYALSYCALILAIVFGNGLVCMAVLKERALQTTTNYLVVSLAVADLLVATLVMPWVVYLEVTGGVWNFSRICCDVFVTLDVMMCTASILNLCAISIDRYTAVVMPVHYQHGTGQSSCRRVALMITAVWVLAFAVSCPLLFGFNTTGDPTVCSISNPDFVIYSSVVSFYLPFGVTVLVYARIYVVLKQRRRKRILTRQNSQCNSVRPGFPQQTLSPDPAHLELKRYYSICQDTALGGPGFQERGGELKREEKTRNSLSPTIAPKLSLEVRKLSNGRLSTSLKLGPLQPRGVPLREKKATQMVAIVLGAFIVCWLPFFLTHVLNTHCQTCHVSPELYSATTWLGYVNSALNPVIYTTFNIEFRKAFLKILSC
procedureSummary: Binding experiment for dopamine D3 receptor ([125I]Iodosulpride)
testSettings: transfected CHO cell membranes, read-out: pIC50 D3 (converted)
Listing: IC50 of selected compounds
I only need the number, in nM, no unit after it.

Some entries whose results are on file:
| compound | measurementName | valueMeasured |
| --- | --- | --- |
| COc1cc2c(cc1OC)C1=NOC(CN3CCC(c4c[nH]c5ccc(C)cc45)CC3)C1CO2 (racemic) [Compound 31] | IC50 | 398 |
| COc1cc2c(cc1OC)C1=NOC(CN3CC=C(c4c[nH]c5ccc(F)cc45)CC3)C1CO2 (racemic) [Compound 1] | IC50 | 126 |
| COc1cc2c(cc1OC)C1=NOC(CN3CC=C(c4c[nH]c5ccc(O)cc45)CC3)C1CO2 (racemic) [Compound 21] | IC50 | 158 |

Alright, here's another compound for you.
Retrieve IC50 measured for COc1cc2c(cc1OC)C1=NOC(CN3CC=C(c4c[nH]c5ccc(-c6ccccc6)cc45)CC3)C1CO2 (racemic) [Compound 22] and print it.
3160

---

# pIC50 D2 per record follows
target: Human Dopamine D2L receptor (Homo sapiens, UniProt P14416)
Construct: expressed in transfected cells; host or cells: CHO cells
Sequence (P14416 whole entry): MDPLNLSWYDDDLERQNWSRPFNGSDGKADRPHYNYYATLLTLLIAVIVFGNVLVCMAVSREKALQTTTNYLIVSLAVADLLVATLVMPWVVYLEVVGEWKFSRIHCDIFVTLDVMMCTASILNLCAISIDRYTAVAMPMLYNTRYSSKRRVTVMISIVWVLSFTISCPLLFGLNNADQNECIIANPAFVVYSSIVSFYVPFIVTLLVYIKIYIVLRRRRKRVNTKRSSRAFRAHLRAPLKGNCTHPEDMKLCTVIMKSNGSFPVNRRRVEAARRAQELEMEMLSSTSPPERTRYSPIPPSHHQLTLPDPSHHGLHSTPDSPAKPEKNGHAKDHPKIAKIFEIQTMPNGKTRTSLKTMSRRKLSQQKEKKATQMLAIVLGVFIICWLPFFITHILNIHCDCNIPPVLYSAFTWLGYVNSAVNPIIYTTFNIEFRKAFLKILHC
procedureSummary: Binding experiment for dopamine D2 receptor ([3H]Spiperone)
testSettings: D2L-transfected CHO cell membranes

Illustrative cases are given below, each with its answer.
| compound | valueMeasured |
| --- | --- |
| COc1cc2c(cc1OC)C1=NOC(CN3CC=C(c4c[nH]c5ccccc45)CC3)C1CO2 (single isomer, unassigned) [Compound 6] | <6 |
| COc1cc2c(cc1OC)C1=NOC(CN3CCC(c4c[nH]c5ccccc45)CC3)C1CO2.O=C(O)C(=O)O (single isomer, unassigned) | 6.3 |
| COc1cc2c(cc1OC)C1=NOC(CN3CC=C(c4c[nH]c5ccc(Br)cc45)CC3)C1CO2 (racemic) | 6.3 |
| Fc1ccc2[nH]cc(C3CCN(CC4ON=C5c6cc7c(cc6OCC54)OCCO7)CC3)c2c1 (single isomer, unassigned) | 6.6 |

Next item in the queue.
State, in one line, measured pIC50 D2 of COc1cc2c(cc1OC)C1=NOC(CN3CCC(c4c[nH]c5cc(F)ccc45)CC3)C1CO2 (racemic) [Compound 26]
7.9

---

target: human 5HT transporter (Homo sapiens)
Construct: host or cells: HEK cells
Sequence (P31645 whole entry): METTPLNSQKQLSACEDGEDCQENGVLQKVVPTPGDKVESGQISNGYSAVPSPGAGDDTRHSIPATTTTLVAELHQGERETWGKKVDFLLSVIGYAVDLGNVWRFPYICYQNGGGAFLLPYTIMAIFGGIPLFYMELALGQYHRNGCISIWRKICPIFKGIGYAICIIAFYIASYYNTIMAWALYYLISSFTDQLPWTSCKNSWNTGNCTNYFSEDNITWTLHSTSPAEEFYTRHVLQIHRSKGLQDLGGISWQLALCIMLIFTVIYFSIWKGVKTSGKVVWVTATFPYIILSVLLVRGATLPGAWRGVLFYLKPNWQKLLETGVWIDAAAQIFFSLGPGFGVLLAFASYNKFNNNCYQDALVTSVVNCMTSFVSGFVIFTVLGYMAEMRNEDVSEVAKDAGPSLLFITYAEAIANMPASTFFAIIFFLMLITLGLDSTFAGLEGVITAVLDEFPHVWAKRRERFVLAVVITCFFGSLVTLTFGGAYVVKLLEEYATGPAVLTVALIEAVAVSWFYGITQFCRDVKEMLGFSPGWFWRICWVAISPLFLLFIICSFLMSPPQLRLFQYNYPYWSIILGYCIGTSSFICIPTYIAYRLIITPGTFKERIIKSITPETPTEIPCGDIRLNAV
procedureSummary: Binding experiment for 5-HT transporter ([3H]Paroxetine)
testSettings: transfected HEK cell membranes, [3H]Paroxetine; read-out: pIC50 5HTT (converted)
Listed below: IC50 values for each entry.
Give the number; nM is assumed, so skip it.

| compound | measurementName | valueMeasured |
| --- | --- | --- |
| CC(=O)Nc1ccc2c(c1)OCC1C2=NOC1CN1CCC(c2c[nH]c3ccc(F)cc23)CC1 (stereo not drawn) | IC50 | 50.1 |
| COc1cc2c(cc1OC)C1=NOC(CN3CC=C(c4c[nH]c5ccc(F)cc45)CC3)C1CO2 (racemic) | IC50 | 15.8 |

Quickly give me recorded IC50 for COc1cc2c(cc1OC)C1=NOC(CN3CCC(c4c[nH]c5ccc(C)cc45)CC3)C1CO2 (racemic)
200

Fill in IC50 for record COc1cc2c(cc1OCCOC(C)=O)OCC1C2=NOC1CN1CCC(c2c[nH]c3ccc(F)cc23)CC1 (racemic)
79.4

Give IC50 for the following compound: COc1cc2c(cc1OC)C1=NOC(CN3CC=C(c4c[nH]c5ccc(-c6ccccc6)cc45)CC3)C1CO2 (racemic)
2510

Hello, please tell me recorded IC50 for this one: COc1ccc2[nH]cc(C3CCN(CC4ON=C5c6cc(OC)c(OC)cc6OCC54)CC3)c2c1 (racemic)
1260

Provide measured IC50 value, entry: COc1cc2c(cc1OC)C1=NOC(CN3CCC(c4coc5cc(F)ccc45)CC3)C1CO2 (stereo not drawn)
79.4

State its IC50: COc1cc2c(cc1OC)C1=NOC(CN3CC=C(c4c[nH]c5ccc(N)cc45)CC3)C1CO2 (stereo not drawn)
631

Input COc1cc2c(cc1OCCO)OCC1C2=NOC1CN1CCC(c2c[nH]c3ccc(F)cc23)CC1 (racemic) , output reported IC50.
398

Give reported IC50 value for COc1cc2c(cc1OC)C1=NOC(CN3CC=C(c4c[nH]c5ccc(O)cc45)CC3)C1CO2 (racemic)
39.8

Tell us which IC50 value is on record for COc1cc2c(cc1OC)C1=NOC(CN3CCC(c4c[nH]c5ccc(O)cc45)CC3)C1CO2 (racemic)
63.1

Look up IC50 of COc1cc2c(cc1OC)C1=NO[C@@H](CN3CCC(n4ccc5ccccc54)CC3)[C@@H]1CO2 (racemic) and report it.
631
